system: E. coli UB 1005; assay type: cell-based
Residues, ends and D or L forms follow the SMILES beside them.
Give measured MIC for each item. Keep answers brief.
Numbers only; they are read as µM.

Please tell me: MIC of CC[C@H](C)[C@H](NC(=O)[C@H](CCCCN)NC(=O)[C@H](CCCNC(=N)N)NC(=O)[C@H](CC(C)C)NC(=O)[C@H](Cc1ccccc1)NC(=O)[C@H](CCCNC(=N)N)NC(=O)CNC(=O)[C@H](Cc1ccccc1)NC(=O)[C@@H](N)CCCNC(=N)N)C(=O)N[C@@H](CCCNC(=N)N)C(=O)N[C@@H](CCCNC(=N)N)C(=O)N[C@@H](Cc1ccccc1)C(=O)N[C@@H](CCCNC(=N)N)C(=O)N1CCC[C@H]1C(=O)N[C@@H](CCCCN)C(N)=O [FO] (H-RFGRFLRKIRRFRPK-NH2) , system E. coli UB 1005?
16

// query: CC[C@H](C)[C@H](NC(=O)[C@H](CCCCN)NC(=O)[C@H](CCCCN)NC(=O)[C@H](Cc1ccccc1)NC(=O)[C@H](CC(C)C)NC(=O)[C@H](CCCCN)NC(=O)[C@H](Cc1c[nH]c2ccccc12)NC(=O)[C@@H](N)CCCCN)C(=O)N[C@@H](Cc1c[nH]c2ccccc12)C(=O)N[C@@H](Cc1c[nH]c2ccccc12)C(=O)N1CCC[C@H]1C(=O)N[C@@H](Cc1ccccc1)C(=O)N[C@@H](CC(C)C)C(=O)N[C@@H](CCCNC(=N)N)C(=O)N[C@@H](CCCNC(=N)N)C(N)=O [CA-TP] (H-KWKLFKKIWWPFLRR-NH2)
4

Also CC(C)C[C@H](NC(=O)[C@H](Cc1ccccc1)NC(=O)[C@@H]1CCCN1C(=O)[C@H](Cc1c[nH]c2ccccc12)NC(=O)[C@@H](N)Cc1c[nH]c2ccccc12)C(=O)N[C@@H](CCCNC(=N)N)C(=O)N[C@@H](CCCNC(=N)N)C(N)=O [TP] (H-WWPFLRR-NH2) ?
128

* * *

system: S. pullorum C7913; assay type: cell-based
Residues, ends and D or L forms follow the SMILES beside them.
Give measured MIC for each item. Keep answers brief.

Need MIC, item CC[C@H](C)[C@H](NC(=O)[C@H](CCCCN)NC(=O)[C@H](CCCCN)NC(=O)[C@H](Cc1ccccc1)NC(=O)[C@H](CC(C)C)NC(=O)[C@H](CCCCN)NC(=O)[C@H](Cc1c[nH]c2ccccc12)NC(=O)[C@@H](N)CCCCN)C(=O)N[C@@H](Cc1c[nH]c2ccccc12)C(=O)N[C@@H](Cc1c[nH]c2ccccc12)C(=O)N1CCC[C@H]1C(=O)N[C@@H](Cc1ccccc1)C(=O)N[C@@H](CC(C)C)C(=O)N[C@@H](CCCNC(=N)N)C(=O)N[C@@H](CCCNC(=N)N)C(N)=O [CA-TP] (H-KWKLFKKIWWPFLRR-NH2)
4 µM

# repeat for CC[C@H](C)[C@H](NC(=O)[C@H](CCCCN)NC(=O)[C@H](CCCCN)NC(=O)[C@H](Cc1ccccc1)NC(=O)[C@H](CC(C)C)NC(=O)[C@H](CCCCN)NC(=O)[C@H](Cc1c[nH]c2ccccc12)NC(=O)[C@@H](N)CCCCN)C(N)=O [CA] (H-KWKLFKKI-NH2)
>128 µM

Try the molecule CC[C@H](C)[C@H](NC(=O)[C@H](CCCCN)NC(=O)[C@H](CCCNC(=N)N)NC(=O)[C@H](CC(C)C)NC(=O)[C@H](Cc1ccccc1)NC(=O)[C@H](CCCNC(=N)N)NC(=O)CNC(=O)[C@H](Cc1ccccc1)NC(=O)[C@@H](N)CCCNC(=N)N)C(=O)N[C@@H](CCCNC(=N)N)C(=O)N[C@@H](CCCNC(=N)N)C(=O)N[C@@H](Cc1ccccc1)C(=O)N[C@@H](CCCNC(=N)N)C(=O)N1CCC[C@H]1C(=O)N[C@@H](CCCCN)C(N)=O [FO] (H-RFGRFLRKIRRFRPK-NH2)
16 µM

Same again, this time with CC(C)C[C@H](NC(=O)[C@H](Cc1ccccc1)NC(=O)[C@@H]1CCCN1C(=O)[C@H](Cc1c[nH]c2ccccc12)NC(=O)[C@@H](N)Cc1c[nH]c2ccccc12)C(=O)N[C@@H](CCCNC(=N)N)C(=O)N[C@@H](CCCNC(=N)N)C(N)=O [TP] (H-WWPFLRR-NH2)
64 µM

* * *

Exercise: state measured MIC for each of the compounds provided.
system: E. coli ATCC25922; assay type: cell-based
Residues, ends and D or L forms follow the SMILES beside them.
Give the value, in units of µM, as a plain number.

Fill in the blank: the reported MIC of CC[C@H](C)[C@H](NC(=O)[C@H](CCCCN)NC(=O)[C@H](CCCNC(=N)N)NC(=O)[C@H](CC(C)C)NC(=O)[C@H](Cc1ccccc1)NC(=O)[C@H](CCCNC(=N)N)NC(=O)CNC(=O)[C@H](Cc1ccccc1)NC(=O)[C@@H](N)CCCNC(=N)N)C(=O)N[C@@H](CCCNC(=N)N)C(=O)N[C@@H](CCCNC(=N)N)C(=O)N[C@@H](Cc1ccccc1)C(=O)N[C@@H](CCCNC(=N)N)C(=O)N1CCC[C@H]1C(=O)N[C@@H](CCCCN)C(N)=O [FO] (H-RFGRFLRKIRRFRPK-NH2) is ____.
32

Same question, CC[C@H](C)[C@H](NC(=O)[C@H](CCCCN)NC(=O)[C@H](CCCCN)NC(=O)[C@H](Cc1ccccc1)NC(=O)[C@H](CC(C)C)NC(=O)[C@H](CCCCN)NC(=O)[C@H](Cc1c[nH]c2ccccc12)NC(=O)[C@@H](N)CCCCN)C(=O)N[C@@H](Cc1c[nH]c2ccccc12)C(=O)N[C@@H](Cc1c[nH]c2ccccc12)C(=O)N1CCC[C@H]1C(=O)N[C@@H](Cc1ccccc1)C(=O)N[C@@H](CC(C)C)C(=O)N[C@@H](CCCNC(=N)N)C(=O)N[C@@H](CCCNC(=N)N)C(N)=O [CA-TP] (H-KWKLFKKIWWPFLRR-NH2) this time
2

Try CC(C)C[C@H](NC(=O)[C@H](Cc1ccccc1)NC(=O)[C@@H]1CCCN1C(=O)[C@H](Cc1c[nH]c2ccccc12)NC(=O)[C@@H](N)Cc1c[nH]c2ccccc12)C(=O)N[C@@H](CCCNC(=N)N)C(=O)N[C@@H](CCCNC(=N)N)C(N)=O [TP] (H-WWPFLRR-NH2) next.
128

* * *

tested on: E. coli ATCC25922; format: cell-based
Residues, ends and D or L forms follow the SMILES beside them.
valueKind: MIC
Write the numeric value and append its unit.

Can you look up the measured MIC of CC[C@H](C)[C@H](NC(=O)[C@H](CCCCN)NC(=O)[C@H](CCCCN)NC(=O)[C@H](Cc1ccccc1)NC(=O)[C@H](CC(C)C)NC(=O)[C@H](CCCCN)NC(=O)[C@H](Cc1c[nH]c2ccccc12)NC(=O)[C@@H](N)CCCCN)C(N)=O [CA] (H-KWKLFKKI-NH2) for me?
64 µM

* * *

Please provide measured HC10, concentration that induced 10% hemolysis of human red blood cells for the entries that follow.
test system: human erythrocytes; assay: Hemolytic activity; type: cell-based; settings: 37 °C, 1 h, probit regression in SPSS, unit not given (peptides tested at 0.5–256 µM)
Residues, ends and D or L forms follow the SMILES beside them.
Give the figure only, with no unit attached.

// HC10, concentration that induced 10% hemolysis of human red blood cells lookup, key: CC(C)C[C@H](NC(=O)[C@H](Cc1ccccc1)NC(=O)[C@@H]1CCCN1C(=O)[C@H](Cc1c[nH]c2ccccc12)NC(=O)[C@@H](N)Cc1c[nH]c2ccccc12)C(=O)N[C@@H](CCCNC(=N)N)C(=O)N[C@@H](CCCNC(=N)N)C(N)=O [TP] (H-WWPFLRR-NH2)
25.06

Same read-out for CC[C@H](C)[C@H](NC(=O)[C@H](CCCCN)NC(=O)[C@H](CCCCN)NC(=O)[C@H](Cc1ccccc1)NC(=O)[C@H](CC(C)C)NC(=O)[C@H](CCCCN)NC(=O)[C@H](Cc1c[nH]c2ccccc12)NC(=O)[C@@H](N)CCCCN)C(N)=O [CA] (H-KWKLFKKI-NH2) ?
15.54

One more molecule: CC[C@H](C)[C@H](NC(=O)[C@H](CCCCN)NC(=O)[C@H](CCCNC(=N)N)NC(=O)[C@H](CC(C)C)NC(=O)[C@H](Cc1ccccc1)NC(=O)[C@H](CCCNC(=N)N)NC(=O)CNC(=O)[C@H](Cc1ccccc1)NC(=O)[C@@H](N)CCCNC(=N)N)C(=O)N[C@@H](CCCNC(=N)N)C(=O)N[C@@H](CCCNC(=N)N)C(=O)N[C@@H](Cc1ccccc1)C(=O)N[C@@H](CCCNC(=N)N)C(=O)N1CCC[C@H]1C(=O)N[C@@H](CCCCN)C(N)=O [FO] (H-RFGRFLRKIRRFRPK-NH2)
2.78

Let us now turn to CC[C@H](C)[C@H](NC(=O)[C@H](CCCCN)NC(=O)[C@H](CCCCN)NC(=O)[C@H](Cc1ccccc1)NC(=O)[C@H](CC(C)C)NC(=O)[C@H](CCCCN)NC(=O)[C@H](Cc1c[nH]c2ccccc12)NC(=O)[C@@H](N)CCCCN)C(=O)N[C@@H](Cc1c[nH]c2ccccc12)C(=O)N[C@@H](Cc1c[nH]c2ccccc12)C(=O)N1CCC[C@H]1C(=O)N[C@@H](Cc1ccccc1)C(=O)N[C@@H](CC(C)C)C(=O)N[C@@H](CCCNC(=N)N)C(=O)N[C@@H](CCCNC(=N)N)C(N)=O [CA-TP] (H-KWKLFKKIWWPFLRR-NH2)
49.66
